# Test system: Escherichia coli TOP10;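 also: peptides expressed intracellularly from a pBAD plasmid library in pooled LB shake-flask culture, induced with 0.3% L-arabinose, DNA abundance read by NGS, three biological replicates, DESeq2 with apeglm shrinkage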
# protocol-details: shrunken log2 fold change of peptide-encoding DNA abundance (4.5 h post-induction vs induction); higher = less antimicrobial activity (less host growth inhibition)
# conditions-used: time post-induction: 4.5 h; library: site-saturation at positions 5, 18, 19, 20
# shrunken log2 fold change values compiled below

{"sequence-chain": "RRIRWRPPRLPRPRPRPAHDPRP", "shrunken log2 fold change": 0.0987}
{"sequence-chain": "RRIRFRPPRLPRPRPRPQAYPRP", "shrunken log2 fold change": -0.0572}
{"sequence-chain": "RRIRWRPPRLPRPRPRPMAPPRP", "shrunken log2 fold change": 0.0741}
{"sequence-chain": "RRIRLRPPRLPRPRPRPQTHPRP", "shrunken log2 fold change": 0.0338}
